Molecular target: hCMV gB (expressed in HEK293T cells) (human cytomegalovirus, UniProt P06473 32-906)
Sequence (P06473 32-906 limits assumed): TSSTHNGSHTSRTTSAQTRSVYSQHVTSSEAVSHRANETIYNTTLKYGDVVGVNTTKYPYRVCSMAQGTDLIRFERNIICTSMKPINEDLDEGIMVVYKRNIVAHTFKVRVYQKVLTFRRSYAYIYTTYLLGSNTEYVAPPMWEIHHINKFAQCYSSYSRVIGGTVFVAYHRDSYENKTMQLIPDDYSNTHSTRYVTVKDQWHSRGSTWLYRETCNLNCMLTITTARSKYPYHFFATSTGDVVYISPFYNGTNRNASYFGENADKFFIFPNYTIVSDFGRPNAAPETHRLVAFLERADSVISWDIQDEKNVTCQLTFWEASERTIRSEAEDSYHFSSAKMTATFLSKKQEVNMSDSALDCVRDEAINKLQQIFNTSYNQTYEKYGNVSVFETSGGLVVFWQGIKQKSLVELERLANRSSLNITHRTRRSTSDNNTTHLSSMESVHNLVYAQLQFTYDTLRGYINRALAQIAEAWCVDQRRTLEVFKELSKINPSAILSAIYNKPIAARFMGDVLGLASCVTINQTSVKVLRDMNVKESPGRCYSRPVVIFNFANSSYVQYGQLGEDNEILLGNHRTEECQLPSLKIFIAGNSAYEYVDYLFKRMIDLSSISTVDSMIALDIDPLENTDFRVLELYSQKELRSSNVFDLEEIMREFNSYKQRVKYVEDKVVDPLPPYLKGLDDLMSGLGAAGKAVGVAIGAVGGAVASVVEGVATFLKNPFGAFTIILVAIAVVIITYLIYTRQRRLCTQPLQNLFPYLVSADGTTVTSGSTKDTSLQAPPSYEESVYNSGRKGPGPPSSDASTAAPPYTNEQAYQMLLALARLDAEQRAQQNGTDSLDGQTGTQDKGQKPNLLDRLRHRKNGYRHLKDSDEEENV
Assay: cell-based or functional assay
Items are presented alongside their recorded 90% Neutralization MRC-9.
reported_endpoint: 90% Neutralization MRC-9 (µg/mL)

10C6 (antibody, V domains shown, human IgG; also called 10C6-biotin) VH: AVQLVESGGGLAQPGRSLRLSCKVSGFSFSNFEMNWVRQAPGKGLEWIAYIDFTGSTIYYSDSVKGRFTISRDTARNSLYLQMNKLRVEDTAVYYCVRDAGRWGTSWYYFDYWGQGTLVTVSS VL: QSVLTQPPSVSGAPGQRVTISCTGLSSNIGAGYDIHWYQQIPGKAPKLLIYGNNNRPSGVPDRFSGSKSGTSVSLAITGLQAEDEADYYCQSYDSSLNGWVFGGGTRLTVL :: 0.75
4H9 (antibody, V domains shown, human IgG; also called 4H9-biotin) VH: AVQLVESGGGLVRPGGSLRLSCAASGFTFSSHEMHWVRQAPGKGLEWLSYIDFTGSIIYYADSVRGRFTISRDNTKKSLFLQMNSLRDEDTALYYCARDGGRWGTSWYYFDYWGQGVLVTVSS VL: QSVLTQPPSVSGAPGQRVTITCTGSSSNFGAGYDGHWYQQLPGTAPKLLIYGSNRPSGVPDRFSGSKSGTSVSLAITGLQADDEADYYCQSYDSSLSAWVFGGGTKLTVL :: 10
2B11 (antibody, V domains shown, human IgG; also called 2B11-biotin) VH: AVRLVESGGGLAQPGRSLRLSCQVSGFTFGSYEMNWVRQAPGKGLEWIAYIDFTGSTIYYADSVKGRFTISRNTARNSLYLQMNSLRVEDTAVYYCVRDAGRWGTSWYYFDYWGQGTRVTVSP VL: QSVLTQPPSVSGAPGQRVTISCTGISSNIGAGYDIHWYQQIPGKAPKLLVYGNNNRPSGVPDRFSGSKSGTSVSLAITGLQVEDEADYYCQSYDNSLNGWVFGGGTRLTVL :: 0.75
5F1 (antibody, V domains shown, human IgG; also called 5F1-biotin) VH: AVQLVESGGGLAQPGRSLRLSCKVSGFTFSSYEMNWVRQAPGKGLEWIAYIDFTGSTIYYADSVKGRFTISRDTARNSLYLQMNKLRVEDTAVYYCVRDAGRWGTSWYYFDYWGQGTLVTVSS VL: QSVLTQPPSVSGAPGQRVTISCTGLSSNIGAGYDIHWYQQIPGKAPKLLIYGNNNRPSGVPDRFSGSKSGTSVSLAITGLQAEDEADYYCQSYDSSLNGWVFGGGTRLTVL :: 0.5
7H3 (antibody, V domains shown, human IgG; also called 7H3-biotin) VH: QVQLVQSGAEVKNPGASVKVSCKASGYTFTDYYIHWVRQAPGQGLEWMGWFNPNSGGTNFVQNFQGRVTMTRDTSISTAYMELSRLRSDDTAMYYCAKDSAKTASAYYGLNFFYYGMDVWGQGTTVTVSS VL: QSVLSQPPSASGTPGQRVTISCSGSSSNIGKNYVYWYQQVPGTAPKLLMFKNNQRPSGVPDRFSGSKSGTSASLAISGLRSEDEADYYCSAWDGSLSRPLFGGGTKVTVL :: 3
6B4 (antibody, V domains shown, human IgG; also called 6B4-biotin) VH: QVQLVESGGGVVQPGRSLRLSCAASGFRFNEFNMHWVRQAPGKGLEWVAVISIDGRHKYNADSVEGRFTISRDNSRNTLYLQMNSLRVEDTALYYCVTDGKAVDGFSGILEFWGQGTPVTVST VL: EIVLTQSPATLSLSPGERATLSCWASQSVGGYLAWYQQKPGQAPRLLIYDASIRATGIPARFSGSGSGTHFTLTINSLEPEDFAVYYCQQRNNWPPLTFGGGTKVEIK :: 1
